Where do the numbers come from? From ChEMBL document CHEMBL3988442.

This listing pairs compounds with measured Percent Effect.
TARGET OR TEST SYSTEM: Aspartate--tRNA(Asp/Asn) ligase (Mycobacterium tuberculosis (strain ATCC 25618 / H37Rv)); further: in the data most compounds retested in dose-response had high values
Sequence (whole entry): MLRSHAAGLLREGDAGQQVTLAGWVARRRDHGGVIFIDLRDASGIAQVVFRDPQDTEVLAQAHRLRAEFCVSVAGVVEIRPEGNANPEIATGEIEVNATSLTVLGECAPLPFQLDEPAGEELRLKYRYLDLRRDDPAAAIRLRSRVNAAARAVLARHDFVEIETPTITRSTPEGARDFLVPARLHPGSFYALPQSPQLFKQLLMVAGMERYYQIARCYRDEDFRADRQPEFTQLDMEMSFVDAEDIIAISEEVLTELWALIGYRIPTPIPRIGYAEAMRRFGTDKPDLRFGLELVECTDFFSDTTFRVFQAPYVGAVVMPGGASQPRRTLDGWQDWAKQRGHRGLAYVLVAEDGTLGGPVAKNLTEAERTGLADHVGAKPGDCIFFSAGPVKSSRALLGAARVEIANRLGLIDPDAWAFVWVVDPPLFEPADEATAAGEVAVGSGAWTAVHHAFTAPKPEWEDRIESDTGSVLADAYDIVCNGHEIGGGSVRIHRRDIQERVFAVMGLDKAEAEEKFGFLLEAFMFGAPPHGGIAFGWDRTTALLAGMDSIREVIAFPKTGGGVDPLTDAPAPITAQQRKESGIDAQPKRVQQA
ASSAY SUMMARY: Assay for Asp RNA synthetase-1 from Mycobacterium tuberculosis
Assay type: functional
Parameters: scale not given: direction of the effect not stated beside the values
MEASUREMENT CONTEXT: 30 µM
For clarity, give the value followed by its unit.

Worked cases, answers included:
{"COMPOUND": "O=S1(=O)N=C(SCc2ccc(Cl)cc2)Nc2ccc(F)cc21", "Percent Effect": "-0.189%"}
{"COMPOUND": "Cc1cc(=O)n2ncnc2n1CC(O)c1ccccc1Cl (stereo unspecified)", "Percent Effect": "-0.03%"}
{"COMPOUND": "NC(=O)C1CN(C(=O)Nc2ccccc2SC(F)(F)F)CCO1 (stereo unspecified)", "Percent Effect": "-5.1%"}
{"COMPOUND": "CCC(NC(=O)C1CCN(S(C)(=O)=O)CC1)c1ccc(OC)c(C)c1 (stereo unspecified)", "Percent Effect": "-5.17%"}
{"COMPOUND": "Cc1cnc(CN(C)CC2CCCN2c2cccnn2)cn1 (stereo unspecified)", "Percent Effect": "2.77%"}

Query compound follows.
So what does the record say about Percent Effect for Cc1ccc(OCC(=O)NS(=O)(=O)c2cccnc2)cc1C ? -2.57%

###

This listing pairs compounds with measured Percent Effect.
TARGET OR TEST SYSTEM: Shiga toxin 2 (Escherichia coli O157:H7) (UniProt P09385+P09386)
ASSAY SUMMARY: E. coli 0.157:H7 Shiga Toxin SOP - stx2 screening assay
Type: functional
Parameters: scale not given: direction of the effect not stated beside the values
MEASUREMENT CONTEXT: 30 µM
Please state the figure in %; there is no need to write the unit.

Worked cases, answers included:
{"COMPOUND": "COc1ccc(C2=CCN(C(=O)CN(C)CC(N)=O)CC2)cc1", "ENDPOINT UNIT": "%", "Percent Effect": -18.1}
{"COMPOUND": "CCn1cnnc1C1CCN(C(=O)c2ccc(Cl)s2)CC1", "ENDPOINT UNIT": "%", "Percent Effect": -7.76}
{"COMPOUND": "CCN(Cc1ccc2c(c1)OCO2)C(=O)NC(C)Cn1cccn1 (configuration not stated)", "ENDPOINT UNIT": "%", "Percent Effect": -12.4}

So what does the record say about Percent Effect for O=c1cc2c(nn1CN1CCN(c3cccc(Cl)c3)CC1)CCC2 ? -4.9
